Provenance of the data: patent US20230295293A1

- System: cyno FRα
- Sequence (as listed by the source): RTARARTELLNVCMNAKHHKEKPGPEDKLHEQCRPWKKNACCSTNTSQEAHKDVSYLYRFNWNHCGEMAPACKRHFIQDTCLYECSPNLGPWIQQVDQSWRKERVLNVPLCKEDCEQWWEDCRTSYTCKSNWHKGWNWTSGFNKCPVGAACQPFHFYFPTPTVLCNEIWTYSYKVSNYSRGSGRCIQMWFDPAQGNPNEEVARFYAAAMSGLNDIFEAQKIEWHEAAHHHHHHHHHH
- experimental.details: HTRF antigen (IgG) binding assay
- Parameters: species or system cynomolgus monkey
- condition: hybridoma supernatant, 1 nM biotinylated antigen; binder >30% delta F
measured.parameter: HTRF IgG binding assay (% Delta F) Cyno FRα
Answers are plain numbers, in % Delta F.

Input: Recall and state the measured HTRF IgG binding assay (% Delta F) Cyno FRα for AB1370035: anti-FRα fully human IgG1 antibody; VH SEQ ID NO: 41, VL SEQ ID NO: 42 (antibody, V domains shown) VH: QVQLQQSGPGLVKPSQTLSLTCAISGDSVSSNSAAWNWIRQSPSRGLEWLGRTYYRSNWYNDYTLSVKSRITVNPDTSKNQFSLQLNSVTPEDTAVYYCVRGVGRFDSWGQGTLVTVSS VL: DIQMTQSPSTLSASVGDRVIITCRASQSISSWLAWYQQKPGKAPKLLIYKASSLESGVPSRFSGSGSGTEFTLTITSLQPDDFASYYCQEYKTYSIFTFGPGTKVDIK .
Output: 141.47
